This collection of values is drawn from ChEMBL document CHEMBL5137032.

Tested on: A549
test method notes: Cytotoxicity against human A549 cells assessed as cell growth inhibition incubated for 48 hrs by MTT assay
Assay type: functional, cell-based
stated conditions: A549, 48 h
experimental endpoint: IC50

IN: Using the record for `O=C1N/C(=N\Cc2ccc(C(F)(F)F)cc2)S/C1=C1/CCNC(=O)c2[nH]ccc21` , report its IC50.
OUT: > 100 µM

IN: Which value of IC50 has been reported for `COc1ccc(C/N=C2\NC(=O)/C(=C3\CCNC(=O)c4c3ccn4C)S2)cc1` in the records?
OUT: > 100 µM

IN: For the compound shown here, `Cn1c2c(c3ccccc31)/C(=C1\S/C(=N/Cc3ccccc3)NC1=O)CCNC2=O` , give the reported IC50.
OUT: > 50 µM

====

Record form. Attribute: IC50. Fill in for each entry.
Tested on: SK-MEL-28
test method notes: Cytotoxicity against human SK-MEL-28 cells assessed as cell growth inhibition incubated for 48 hrs by MTT assay
Type: functional, cell-based
stated conditions: SK-MEL-28, 48 h

IN: IC50 for `O=C1N/C(=N\Cc2ccc(Cl)cc2)S/C1=C1/CCNC(=O)c2[nH]ccc21` ?
OUT: > 100 µM

IN: Given `O=C1N/C(=N\Cc2ccc(Cl)cc2)S/C1=C1/CCNC(=O)c2[nH]c3ccccc3c21` , state its recorded IC50.
OUT: > 50 µM

IN: Consider the compound shown here: `O=C1N/C(=N\Cc2ccc(C(F)(F)F)cc2)S/C1=C1/CCNC(=O)c2[nH]ccc21` What is its recorded IC50?
OUT: > 100 µM

====

Tested on: HT-29
test method notes: Cytotoxicity against human HT-29 cells assessed as cell growth inhibition incubated for 48 hrs by MTT assay
Assay type: functional, cell-based
stated conditions: HT-29, 48 h
experimental endpoint: IC50

IN: Please report the recorded IC50 for `COc1ccc(C/N=C2\NC(=O)/C(=C3\CCNC(=O)c4[nH]c5ccccc5c43)S2)cc1OC` .
OUT: > 50 µM

IN: Could you tell me which IC50 is on file for `O=C1N/C(=N\Cc2cccc(Cl)c2)S/C1=C1/CCNC(=O)c2[nH]c3ccccc3c21` ?
OUT: > 50 µM

IN: Consider the molecule `O=C1N/C(=N\CCc2ccc(F)cc2)S/C1=C1/CCNC(=O)c2[nH]c3ccccc3c21` and give its measured IC50.
OUT: > 50 µM

IN: Give its IC50 value. Item: `O=C1N/C(=N\Cc2ccc(C(F)(F)F)cc2)S/C1=C1/CCNC(=O)c2[nH]ccc21`
OUT: > 50 µM

IN: Consider the molecule shown here: `O=C1N/C(=N\Cc2ccc(Cl)cc2)S/C1=C1/CCNC(=O)c2[nH]ccc21` What is its recorded IC50?
OUT: > 100 µM

IN: Which IC50 reading was recorded for the molecule `Cn1c2c(c3ccccc31)/C(=C1\S/C(=N/Cc3ccccc3)NC1=O)CCNC2=O` ?
OUT: > 50 µM

====

Tested on: SK-MEL-28
test method notes: Cytotoxicity against human SK-MEL-28 cells assessed as cell growth inhibition incubated for 48 hrs by MTT assay
Type: functional, cell-based
stated conditions: SK-MEL-28, 48 h
pIC50: −log10 of the molar value.
experimental endpoint: pIC50

IN: # input compound: `Cn1c2c(c3ccccc31)/C(=C1\S/C(=N/Cc3ccccc3)NC1=O)CCNC2=O` ; wanted: its pIC50
OUT: < 4.30

IN: Please report the recorded pIC50 for `O=C1N/C(=N\Cc2ccc(F)cc2)S/C1=C1/CCNC(=O)c2[nH]c3ccccc3c21` .
OUT: < 4.30

IN: Name the recorded pIC50 for `O=C1N/C(=N\Cc2ccccc2Cl)S/C1=C1/CCNC(=O)c2[nH]ccc21` .
OUT: < 4.00

IN: // lookup pIC50 for `O=C1N/C(=N\CCc2ccc(F)cc2)S/C1=C1/CCNC(=O)c2[nH]c3ccccc3c21`
OUT: < 4.30

IN: # input compound: `COc1ccc(C/N=C2\NC(=O)/C(=C3\CCNC(=O)c4c3ccn4C)S2)cc1` ; wanted: its pIC50
OUT: < 4.00

IN: Which value of pIC50 has been reported for `O=C1N/C(=N\Cc2ccc3c(c2)OCO3)S/C1=C1/CCNC(=O)c2[nH]c3ccccc3c21` in the records?
OUT: < 4.30
